Target: T1, rhesus CD30 ECD (rhesus, UniProt P28908 19-379 (human entry))
T1 construct: Produced in house; also called recombinant rhesus CD30; rhesus CD30 protein
T1 chain: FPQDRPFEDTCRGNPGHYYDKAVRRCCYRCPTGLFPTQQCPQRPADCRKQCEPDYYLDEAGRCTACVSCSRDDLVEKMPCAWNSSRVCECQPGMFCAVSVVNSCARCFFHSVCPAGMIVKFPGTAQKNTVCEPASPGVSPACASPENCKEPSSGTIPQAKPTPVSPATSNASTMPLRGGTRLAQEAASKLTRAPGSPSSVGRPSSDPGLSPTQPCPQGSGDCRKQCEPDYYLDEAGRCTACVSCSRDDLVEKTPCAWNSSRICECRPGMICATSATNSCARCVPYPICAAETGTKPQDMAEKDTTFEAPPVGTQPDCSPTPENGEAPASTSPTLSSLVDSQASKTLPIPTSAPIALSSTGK
Test: ELISA on rhesus CD30 ECD protein; member of the group by paragraph 437
observable: binding result

AS48542 sdAb (VHH, Camel sdAb) VHH: QMQLVESGGGSVQAGETLRLSCTTSAFTFDGPDMAWYRQAPGNECVLVSIISADGRTYYADSVKGRFTISRDNAKNTVFLNLNSLQPEDTAVYYCALDPRKNCRGGYCCANWGPGTQVTVSS    binds
AS57659 human Fab (Fab, V domains shown, Human Fab from a synthetic human Fab library, crude protein from E. coli with 6xHistidine tag) VH: EVQLVESGGGLVQPGGSLRLSCAASGFNIYSYYIHWVRQAPGKGLEWVASIYSSYSSTYYADSVKGRFTISADTSKNTAYLQMNSLRAEDTAVYYCARSWFSYPGLDYWGQGTLVTVSS VL: DIQMTQSPSSLSASVGDRVTITCRASQSVSSAVAWYQQKPGKAPKLLIYSASSLYSGVPSRFSGSRSGTDFTLTISSLQPEDFATYYCQQPYYLITFGQGTKVEIK    binds
AS54233 sdAb (VHH, Camel sdAb) VHH: QVQLVESGGGSVQAGETLRLSCTASGFTFDGPDMAWYRQAPGNECELVSIISADGRTYYTDSVKGRFTASQDNAKNTVSLYLKSLQPEDTAVYYCAADPRRNCRGNCCGNWGPGTQVTVSS    binds

Data provenance: patent US20220144960A1
